The measured values listed here are drawn from patent US20260317324A1.

# assayed.system: BRAF D594G (Homo sapiens, UniProt P15056, D594G)
# Construct: Horizon Discovery (HCT-116 BRAF−/− cells); host or cells: HCT-116 BRAF−/− cells, clone 63, lentiviral transduction
# Sequence (P15056 whole entry D594G): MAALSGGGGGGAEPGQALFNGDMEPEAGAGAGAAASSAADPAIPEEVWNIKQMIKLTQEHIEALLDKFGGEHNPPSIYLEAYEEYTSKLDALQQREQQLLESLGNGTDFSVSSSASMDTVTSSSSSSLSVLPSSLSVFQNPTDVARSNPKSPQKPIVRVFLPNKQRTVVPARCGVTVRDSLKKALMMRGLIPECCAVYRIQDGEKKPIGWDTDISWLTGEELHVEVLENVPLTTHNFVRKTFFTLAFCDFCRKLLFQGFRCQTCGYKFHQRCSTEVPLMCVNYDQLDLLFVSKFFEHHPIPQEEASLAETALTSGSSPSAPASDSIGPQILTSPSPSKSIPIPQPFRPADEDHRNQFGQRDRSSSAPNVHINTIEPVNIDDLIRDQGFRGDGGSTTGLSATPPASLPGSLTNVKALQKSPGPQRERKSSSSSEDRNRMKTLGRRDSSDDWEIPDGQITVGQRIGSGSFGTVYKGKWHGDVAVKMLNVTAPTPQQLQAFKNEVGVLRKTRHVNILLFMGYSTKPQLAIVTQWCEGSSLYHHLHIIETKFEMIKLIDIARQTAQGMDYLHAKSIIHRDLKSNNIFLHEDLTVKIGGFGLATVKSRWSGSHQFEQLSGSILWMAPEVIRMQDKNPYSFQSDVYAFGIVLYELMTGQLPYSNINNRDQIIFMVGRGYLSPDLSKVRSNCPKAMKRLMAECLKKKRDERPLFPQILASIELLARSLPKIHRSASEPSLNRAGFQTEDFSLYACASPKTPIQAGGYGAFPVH
# assay.notes: BRAF HiBiT degradation assay, C-terminal HiBiT-tagged BRAF D594G overexpressed in HCT-116 BRAF−/− cells (clone 63), Nano-Glo HiBiT Lytic assay
# Type: cell-based
# test.conditions: BRAF D594G (Class 3), HCT-116 BRAF−/− cells; DC50 at 50% degradation
property.name: DC50

{"molecule": "CCN(C)S(=O)(=O)Nc1cc(Cl)cc(-c2cn(-c3ccc(N4CCN(CC5CCN(c6ccc([C@H]7CCC(=O)NC7=O)cc6)CC5)CC4)cn3)nc2-c2ccncc2)c1F", "DC50": "< 10 nM"}
{"molecule": "O=C1CC[C@H](c2ccc(N3CCC(CN4CCN(c5ccc(-n6cc(-c7cc(Cl)cc(NS(=O)(=O)N8CC(F)C8)c7F)c(-c7ccncc7)n6)cc5)CC4)CC3)nc2)C(=O)N1", "DC50": "< 10 nM"}
{"molecule": "CCN(C)S(=O)(=O)Nc1cc(Cl)cc(-c2cn(-c3ccc(N4CCN(CC5CCN(c6ccc([C@H]7CCC(=O)NC7=O)cn6)CC5)CC4)cc3)nc2-c2ccncc2)c1F", "DC50": "< 10 nM"}
{"molecule": "O=C1CC[C@H](c2ccc(N3CCC(CN4CCN(c5ccc(-n6cc(-c7cc(Cl)cc(NS(=O)(=O)N8CCCC8)c7F)c(-c7ccncc7)n6)cc5)CC4)CC3)nc2)C(=O)N1", "DC50": "< 10 nM"}
{"molecule": "CCN(C)S(=O)(=O)Nc1cc(Cl)cc(-c2cn(-c3ccc(N4CCN(CC5CCN(c6ccc(C7CCC(=O)NC7=O)cn6)CC5)CC4)cc3)nc2-c2ccncc2)c1F (racemic)", "DC50": "< 10 nM"}
{"molecule": "CCCS(=O)(=O)Nc1cccc(-c2nc(C3CCC4(CC3)CCN(C(=O)C3CCN(c5ccc(C(=O)NC6CCC(=O)NC6=O)nc5)CC3)CC4)sc2-c2ccnc(N)n2)c1F (racemic)", "DC50": "> 500 nM"}

BRAF D594G (Homo sapiens, UniProt P15056, D594G) assay, molecule CCCS(=O)(=O)Nc1cccc(-c2nc(C3CCC4(CC3)CCN(CC[C@H]3CCN(c5ccc(C6CCC(=O)NC6=O)cn5)C3)CC4)sc2-c2ccnc(N)n2)c1F (mixture of isomers) , recorded DC50 = > 500 nM

BRAF D594G (Homo sapiens, UniProt P15056, D594G) assay, molecule CCN(C)S(=O)(=O)Nc1cc(Cl)cc(-c2cn(-c3ccc(N4CCN(CC5CCN(c6ccc([C@H]7CCC(=O)NC7=O)cc6)CC5)CC4)cc3)nc2-c2ccncc2)c1F , recorded DC50 = < 10 nM

BRAF D594G (Homo sapiens, UniProt P15056, D594G) assay, molecule O=C1CCN(c2ccc(N3CCC(CN4CCN(c5ccc(-n6cc(-c7cc(Cl)cc(NS(=O)(=O)N8CCCC8)c7F)c(-c7ccncc7)n6)c(F)c5)CC4)CC3)nc2)C(=O)N1 , recorded DC50 = < 10 nM

BRAF D594G (Homo sapiens, UniProt P15056, D594G) assay, molecule C[C@@H]1CN(c2ccc(-n3cc(-c4cc(F)cc(NS(=O)(=O)N5CCCC5)c4F)c(-c4ccncc4)n3)c(F)c2)CCN1CC1CCN(c2ccc(C3CCC(=O)NC3=O)cn2)CC1 (mixture of isomers) , recorded DC50 = < 10 nM

BRAF D594G (Homo sapiens, UniProt P15056, D594G) assay, molecule O=C1CCN(c2ccc(N3CCC(CN4CCN(c5ccc(-n6cc(-c7cc(Cl)cc(NS(=O)(=O)N8CC[C@@H](F)C8)c7F)c(-c7ccncc7)n6)cc5)CC4)CC3)cc2)C(=O)N1 , recorded DC50 = < 10 nM

BRAF D594G (Homo sapiens, UniProt P15056, D594G) assay, molecule O=C1CC[C@H](c2ccc(N3CCC(CN4CCN(c5ccc(-n6cc(-c7cc(Cl)cc(NS(=O)(=O)C8CCCC8)c7F)c(-c7ccncc7)n6)cc5)CC4)CC3)nc2)C(=O)N1 , recorded DC50 = < 10 nM

BRAF D594G (Homo sapiens, UniProt P15056, D594G) assay, molecule C[C@@H]1CN(c2ccc(-n3cc(-c4cc(Cl)cc(NS(=O)(=O)N5CC[C@@H](F)C5)c4F)c(-c4ccncc4)n3)cc2)CCN1CC1CCN(c2ccc([C@H]3CCC(=O)NC3=O)cc2)CC1 , recorded DC50 = < 10 nM

BRAF D594G (Homo sapiens, UniProt P15056, D594G) assay, molecule O=C1CC[C@H](c2ccc(N3CCC(CN4CCN(c5ccc(-n6cc(-c7cc(Cl)cc(NS(=O)(=O)N8CC(F)C8)c7F)c(-c7ccncc7)n6)c(F)c5)CC4)CC3)cc2)C(=O)N1 , recorded DC50 = < 10 nM
